The origin of these recorded values is patent US4387238A.

- target_or_test_system: papain (Carica papaya, UniProt P00784)
- Construct: purchased Sigma Chem. Co
- Sequence (P00784 134-345): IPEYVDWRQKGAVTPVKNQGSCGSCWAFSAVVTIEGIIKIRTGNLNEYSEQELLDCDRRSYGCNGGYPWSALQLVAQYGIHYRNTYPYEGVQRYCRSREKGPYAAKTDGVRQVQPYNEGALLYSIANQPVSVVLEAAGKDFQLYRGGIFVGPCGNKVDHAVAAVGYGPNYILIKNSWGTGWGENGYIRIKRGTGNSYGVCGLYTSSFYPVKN
- protocol: Papain inhibitory activity (milk casein proteolysis)
- Type: biochemical
- Parameters: unit not given beside the values
- measurement_conditions: amount of inhibitor for 50% inhibition; pH 6.8, 40° C., casein substrate
Catalogue of compounds with associated ID50
measurement_kind: ID50

compound="CCOC(=O)[C@@H]1O[C@H]1C(=O)Nc1cccc(C(F)(F)F)c1 (relative stereo)" reported_value="40.30 γ"
compound="CCOC(=O)[C@@H]1O[C@H]1C(=O)Nc1ccccc1O (relative stereo)" reported_value="138.88 γ"
compound="O=C(O)[C@@H]1O[C@H]1C(=O)Nc1ccccc1 (relative stereo) [Compound No. 95, potassium N-phenyl-2,3-epoxysuccinamate]" reported_value="0.330 γ"
compound="CCOC(=O)c1ccccc1NC(=O)[C@@H]1O[C@H]1C(=O)OCC (relative stereo)" reported_value="105.93 γ"
compound="CCCOC(=O)[C@H]1O[C@@H]1C(=O)NC1CCCC1 (relative stereo)" reported_value="4.23 γ"
compound="O=C(O)[C@@H]1O[C@H]1C(=O)NC1CCCCC1 (relative stereo) [Compound No. 107, N-Cyclohexyl-2,3-epoxysuccinamic acid]" reported_value="0.214 γ"
compound="CCOC(=O)[C@@H]1O[C@H]1C(=O)N1CCN(C)CC1 (relative stereo)" reported_value="868.05 γ"

---

- target_or_test_system: papain (Carica papaya, UniProt P00784)
- Construct: purchased Sigma Chem. Co
- protocol: Papain inhibitory activity (milk casein proteolysis)
- Type: biochemical
- Parameters: unit not given beside the values
- measurement_conditions: amount of inhibitor for 50% inhibition; pH 6.8, 40° C., casein substrate
measurement_kind: ID50

compound="CCOC(=O)[C@H]1O[C@@H]1C(=O)N(CC(C)C)CC(C)C (relative stereo) [Compound No. 56]" reported_value="148.80 γ"
compound="O=C(O)[C@@H]1O[C@H]1C(=O)NCC1CCCC1 (relative stereo) [Compound No. 108]" reported_value="0.234 γ"
compound="COc1ccccc1NC(=O)[C@H]1O[C@@H]1C(=O)OC(C)C (relative stereo) [Compound No. 37]" reported_value="5.81 γ"
compound="CC(C)COC(=O)[C@H]1O[C@@H]1C(=O)Nc1ccccc1 (relative stereo) [Compound No. 40, Isobutyl N-phenyl-2,3-epoxysuccinamate]" reported_value="13.20 γ"

---

inhibition in vivo at 30 mg/kg by entry:
- Tested on: adjuvant-induced polyarthritis
- protocol: Effect on the development of adjuvant-induced polyarthritis in rat (hind paw volume)
- Assay type: in vivo, Sprague Dawley rat
- measurement_conditions: 408 h, 30 mg/kg of body weight, daily oral, day 17, mean inhibition for increase of hind paw volume, 8 rats/group, read-out: Inhibition(%) 17 days
- Protocol: The compounds of the present invention show excellent anti-inflammatory activity as measured by their ability to inhibit adjuvant induced polyarthritis as compared with the known epoxysuccinates. […] The activity is measured as the mean inhibition percent for the increase of the hind paw volume of the 8 rats/group on the days 17 and 23 on which the legs become inflamed and reach maximum volumes. […]
measurement_kind: inhibition in vivo at 30 mg/kg (%)

compound="CC(C)COC(=O)[C@H]1O[C@@H]1C(=O)Nc1ccccc1 (relative stereo) [Compound No. 40, Isobutyl N-phenyl-2,3-epoxysuccinamate]" measurement_kind="inhibition in vivo at 30 mg/kg" reported_value=40
compound="CCOC(=O)[C@@H]1O[C@H]1C(=O)Nc1ccc([N+](=O)[O-])cc1 (relative stereo)" measurement_kind="inhibition in vivo at 30 mg/kg" reported_value=65
compound="O=C(NCc1ccccc1)[C@H]1O[C@@H]1C(=O)Oc1ccccc1 (relative stereo) [Compound No. 48, Phenyl N-benzyl-2,3-epoxysuccinamate]" measurement_kind="inhibition in vivo at 30 mg/kg" reported_value=45
compound="O=C(Nc1ccccc1)[C@H]1O[C@@H]1C(=O)OC1CCCCC1 (relative stereo) [Compound No. 45, Cyclohexyl N-phenyl-2,3-epoxysuccinamate]" measurement_kind="inhibition in vivo at 30 mg/kg" reported_value=65
compound="O=C(O)[C@@H]1O[C@H]1C(=O)NCC1CCCCC1 (relative stereo)" measurement_kind="inhibition in vivo at 30 mg/kg" reported_value=55
compound="CCOC(=O)[C@@H]1O[C@H]1C(=O)N(C)C1CCCCC1 (relative stereo)" measurement_kind="inhibition in vivo at 30 mg/kg" reported_value=45
